Every entry's value here was drawn from the supplement of paper PMC9938120.

- System: FMOC03 (patient-derived mucinous ovarian cancer cells)
- assay_name: drug sensitivity score (DSS3, normalised partial AUC of % inhibition dose-response) (DSS (score)); higher = more sensitive (stronger inhibition of viability); extreme values may be limits of the assay
- condition_parameters: 72 h; library: FO5A; assay format: 2D, 384-well, CellTiter-Glo
property_measured: drug sensitivity score
Quick one: just the number, no unit, thanks!

Data request, read-out drug sensitivity score, for CN1CCN(c2nc(C3=C(c4c[nH]c5ccccc45)C(=O)NC3=O)c3ccccc3n2)CC1
0

Quick one: CN1CC[C@@H](NC(=O)Nc2ccc(C#N)cc2)C[C@@H]1c1nc2ccccc2[nH]1
0

Quick one: CCc1c2c(nc3ccc(O)cc13)-c1cc3c(c(=O)n1C2)COC(=O)[C@]3(O)CC
20.2

Quick one: C[C@@H]1CN(CC(=O)Nc2ccc3c(c2)Cc2cccc(-c4cc(=O)cc(N5CCOCC5)o4)c2S3)C[C@H](C)O1
0.9

Quick one: Cc1cnc(NC(=O)Nc2cc(Br)c(C)cc2OC[C@@H]2CNCCO2)cn1
0

Quick one: NC(=O)NO [Hydroxyurea]
0.7

Quick one: O=C(Nc1cnn2ccc(N3CCC[C@@H]3c3cc(F)ccc3F)nc12)N1CC[C@H](O)C1
0

Quick one: Cc1cc(Nc2ncnc3ccc(NC4=NC(C)(C)CO4)cc23)ccc1Oc1ccn2ncnc2c1
0

---

- Tested on: FMOC02_2 (patient-derived low-grade serous ovarian cancer cells)
- assay_name: drug sensitivity score (DSS3, normalised partial AUC of % inhibition dose-response) (DSS (score)); higher = more sensitive (stronger inhibition of viability); extreme values may be limits of the assay
- condition_parameters: 72 h; library: FO5A; assay format: 2D, 384-well, CellTiter-Glo
Exercise: for every item that follows, state its recorded drug sensitivity score.
Quick one: just the number, no unit, thanks!

Data request, read-out drug sensitivity score, for Nc1ccccc1NC(=O)c1ccc(CNC(=O)OCc2cccnc2)cc1 [Entinostat]
8.6

Quick one: CC(C)C[C@H](NC(=O)[C@@H](COC(C)(C)C)NC(=O)[C@H](Cc1ccc(O)cc1)NC(=O)[C@H](CO)NC(=O)[C@H](Cc1c[nH]c2ccccc12)NC(=O)[C@H](Cc1cnc[nH]1)NC(=O)[C@@H]1CCC(=O)N1)C(=O)N[C@@H](CCCNC(=N)N)C(=O)N1CCC[C@H]1C(=O)NNC(N)=O [Goserelin]
0

Quick one: C#Cc1cccc(Nc2ncnc3cc(OCCOC)c(OCCOC)cc23)c1 [Erlotinib]
15.7

---

Exercise: for every item that follows, state its recorded drug sensitivity score.
- Tested on: FMOC17 (patient-derived low-grade serous ovarian cancer cells)
- assay_name: drug sensitivity score (DSS3, normalised partial AUC of % inhibition dose-response) (DSS (score)); higher = more sensitive (stronger inhibition of viability); extreme values may be limits of the assay
- condition_parameters: 72 h; library: FO5A; assay format: 2D, 384-well, CellTiter-Glo
Quick one: just the number, no unit, thanks!

Data request, read-out drug sensitivity score, for CNC(=O)c1ccc(N2C(=S)N(c3cnc(C#N)c(C(F)(F)F)c3)C(=O)C23CCC3)cc1F [Apalutamide]
0

Quick one: Clc1ccccc1C(c1ccccc1)(c1ccccc1)n1cccn1
0

Quick one: C[C@@H]1C[C@H]2[C@@H]3CCC4=CC(=O)C=C[C@]4(C)[C@@]3(F)[C@@H](O)C[C@]2(C)[C@@]1(O)C(=O)CO
1.3

Quick one: COCCNCc1ccc(-c2cc3nccc(Oc4ccc(NC(=S)NC(=O)Cc5ccc(F)cc5)cc4F)c3s2)nc1
0

Quick one: O=C(NC[C@H](O)CN1CCc2ccccc2C1)c1cc(NC2COC2)ncn1
0

Quick one: Cn1nnc2c(C(N)=O)ncn2c1=O [Temozolomide]
0.2

Quick one: O=C(c1ccc(C(=O)N2CCC(N3CCCC3)CC2)c(Nc2ccccc2)c1)N1CCC(N2CCCC2)CC1
0

Quick one: O=C(CCCCCCNC(=O)c1cnc(N(c2ccccc2)c2ccccc2)nc1)NO
0.7

Quick one: FC(F)(F)c1ccc(/C=C/c2nc(COc3ccc(CCCCn4ccnn4)cc3)co2)cc1
0

Quick one: Cc1c(F)cc(C(=O)NC2CC2)cc1-c1ccc(C(=O)NCC(C)(C)C)cn1
0

Quick one: CO[C@H]1C[C@@H]2CC[C@@H](C)[C@@](O)(O2)C(=O)C(=O)N2CCCC[C@H]2C(=O)O[C@H]([C@H](C)C[C@@H]2CC[C@@H](O)[C@H](OC)C2)CC(=O)[C@H](C)/C=C(\C)[C@@H](O)[C@@H](OC)C(=O)[C@H](C)C[C@H](C)/C=C/C=C/C=C/1C
4.7

Quick one: COc1ccc(CCc2nc3cc(-c4c(C)noc4C)ccc3n2C[C@H](C)N2CCOCC2)cc1Cl
1.4

Quick one: O=C(O)c1ccc(O)c2ncccc12
0

Quick one: Nc1cc(F)ccc1NC(=O)/C=C/c1cnn(C/C=C/c2ccccc2)c1
0.9

Quick one: COc1cc2/c(=N/c3ccc(Br)cc3F)nc[nH]c2cc1OCC1CCN(C)CC1
6.2

Quick one: NC(=O)c1cccc(-c2cccc(OC(=O)NC3CCCCC3)c2)c1
0

Quick one: CNC(=O)c1ccc2cc([C@@]3(O)CCn4cncc43)ccc2c1
0

Quick one: C[C@H]1C[C@@H]2[C@H]([C@@H](O)C[C@@]3(C)[C@H]2CC[C@]3(O)C(=O)CO)[C@@]2(C)C=CC(=O)C=C12
0

Quick one: CN1C(=O)N[C@H](Cc2c[nH]c3c(Cl)cccc23)C1=O
0.7

Quick one: CN(C)CCOc1ccc(/C(=C(/CCCl)c2ccccc2)c2ccccc2)cc1
3.3

Quick one: C[C@H]1CNCCCN1S(=O)(=O)c1cccc2cncc(F)c12
0

Quick one: CCCN(CCC)C(=O)C1=Cc2ccc(-c3ccc(C(=O)N4CCCC4)cc3)cc2N=C(N)C1
0

Quick one: CO[C@@]12[C@H](COC(N)=O)C3=C(C(=O)C(C)=C(N)C3=O)N1C[C@@H]1N[C@@H]12
0

Quick one: CC(C)C(=O)Nc1ccc([N+](=O)[O-])c(C(F)(F)F)c1 [Flutamide]
0

Quick one: CCC(C)n1ncn(-c2ccc(N3CCN(c4ccc(OCC5COC(Cn6cncn6)(c6ccc(Cl)cc6Cl)O5)cc4)CC3)cc2)c1=O (stereo unspecified)
4.8

Quick one: CCN(c1cc(-c2ccc(CN3CCOCC3)cc2)cc(C(=O)NCc2c(C)cc(C)[nH]c2=O)c1C)C1CCOCC1
0

Quick one: CC(C)N(C[C@H]1O[C@@H](n2cnc3c(N)ncnc32)[C@H](O)[C@@H]1O)[C@H]1C[C@@H](CCc2nc3cc(C(C)(C)C)ccc3[nH]2)C1
0

Quick one: COc1cc2ncnc(Oc3cccc(NC(=O)Nc4cc(C(C)(C)C(F)(F)F)on4)c3)c2cc1OC
0

Quick one: CC(C)N(CCCNC(=O)Nc1ccc(C(C)(C)C)cc1)C[C@H]1O[C@@H](n2cc(Br)c3c(N)ncnc32)[C@H](O)[C@@H]1O
2

Quick one: CC[C@@H]1CN(C(=O)NCC(F)(F)F)C[C@@H]1c1cnc2cnc3[nH]ccc3n12
0

Quick one: OC[C@H]1O[C@@H](n2cnc3c2N=CNC[C@H]3O)C[C@@H]1O
0
